- System: CP250
- TEST_DETAILS: qHTS profiling for inhibitors of Plasmodium falciparum proliferation (AID 504749); note: nearly all actives have a fitted effect of over 60% in size
- COND: P. falciparum in erythrocytes, SYBR Green DNA, 72 h; series mostly up to 28.7 µM
Inconclusive results are not listed. Calls of active or inactive are those of the source. Calls come from the whole dose curve; as a rule, active = well fitted inhibition curve with a large enough effect; inconclusive = small, poorly fitted or top-dose-only effect; inactive = flat fitted curve, though single readings scatter.
Classes used: active, inactive

• COc1cc(C(=O)NS(=O)(=O)c2ccccc2C)ccc1Cc1cn(C)c2ccc(NC(=O)OC3CCCC3)cc12 = inactive
• COC(=O)C[C@](O)(CCCC(C)(C)O)C(=O)O[C@@H]1C(OC)=C[C@]23CCCN2CCc2cc4c(cc2[C@H]13)OCO4 = active
• CC1(C)O[C@@H]2C[C@@H]3[C@H]4C[C@@H](F)C5=CC(=O)C=C[C@]5(C)[C@@]4(F)[C@@H](O)C[C@]3(C)[C@]2(C(=O)CO)O1 = inactive
• CC[C@H]1CN2CCc3cc(OC)c(OC)cc3[C@H]2C[C@@H]1C[C@@H]1NCCc2cc(OC)c(OC)cc21 = active
